Values of pIC50 for Cyclin-dependent kinase 2 (Homo sapiens), collected from a number of published sources:
Remember the convention: pIC50 equals -log10 of concentration in molar.

For orientation, consider the following solved cases.
MOLECULE	pIC50
Cc1n[nH]c2ccc(-c3nnc(NC[C@@H](N)Cc4ccccc4Cl)s3)cc12	7.24
Cc1nc2ccccn2c1-c1ccnc(Nc2ccccc2)n1	6.68
Cc1nc2ccc(Nc3c(C)c(N[C@H]4CCCNC4)nc4ccnn34)cc2s1	4.60
O=C(Nc1n[nH]c2ccc(-c3cncc(NC[C@@H](O)c4ccccc4)c3)cc12)c1ccccc1	6.10
Oc1ccc2c(-c3ccnc(Nc4cccc(C(F)(F)F)c4)n3)cnn2n1	8.10

Look up pIC50 of "NC(=O)c1ccc2c(c1)C(=NNc1ccc(S(N)(=O)=O)cc1)C(=O)N2" and report it.
8.35

Look up pIC50 of "CS(=O)(=O)N1CCc2cc(Nc3ncc(C(F)(F)F)c(NCCCN)n3)ccc2C1" and report it.
6.08

Look up pIC50 of Nc1nc(N[C@H]2CC3CCC2C3)sc1C(=O)c1ccccc1[N+](=O)[O-] (stereo not given in full) and report it.
6.63

Look up pIC50 of "CNC(=O)Nc1ccc(-c2cc(-c3ccnc(Nc4ccc(C)c(S(=O)(=O)NC)c4)n3)ccn2)cc1" and report it.
6.96

Look up pIC50 of "O=C(Nc1n[nH]c2ccc(-c3cncc(NC[C@@H](CO)c4ccccc4)c3)cc12)c1ccccc1" and report it.
6.09

Look up pIC50 of "CCc1cc2c(N/N=C\C3CC3)ncnc2s1" and report it.
4.78

Look up pIC50 of "O=C(c1cccc(-c2ccccc2F)c1)N1CCc2c([nH]c3ccccc23)C1" and report it.
3.47
